# System: microorganisms
# Assay Details: Morphology, biofilm and growth disrupting peptides (Table 5)
# Format: cell-based
# Set-up: key: A: Peptide aggregates; B: Less hyphal formation; Clumps; Diffuse clumps and small polyps; F: Diffuse growth; H: Thin; I: Growth inhibition; Microcolony formation; Rippled; Small polyps; Thick; W: Halo formation on top, microlonies on bottom
# Assay Setup: S. pneumoniae
Experimental Readout: Organism, effect

| Substance | Result |
| --- | --- |
| KFQGEFTNIGQSYIVSASHMSTSLNTGK [PF-583] | S. pneumoniae (D) |
| PF-469: peptide having multiple activities (YKVNYNNIDNHFNTLRH; Peptide with targeting and/or antimicrobial activity) | S. pneumoniae (D) |

* * *

# System: microorganisms
# Assay Details: Morphology, biofilm and growth disrupting peptides (Table 5)
# Assay type: cell-based
# Set-up: key: A: Peptide aggregates; B: Less hyphal formation; Clumps; Diffuse clumps and small polyps; F: Diffuse growth; H: Thin; I: Growth inhibition; Microcolony formation; Rippled; Small polyps; Thick; W: Halo formation on top, microlonies on bottom
# Assay Setup: MRSA
Experimental Readout: Organism, effect: MRSA

| Substance | Result |
| --- | --- |
| PF-386: peptide having multiple activities (chain 1 FTLTLITTIVAILNYKDKKK; chain 2 FTLTLITTIVAILNYKDKKK; Peptide with targeting and/or antimicrobial activity) | MRSA (C) |
| HCVIGNVVDIANLLKRRAVYRDIADVIKMR [PF-071] | MRSA (C) |
| PF-393: peptide having multiple activities (chain 1 DLVQSILSEFKKSG; chain 2 DLVQSILSEFKKSG; Peptide with targeting and/or antimicrobial activity) | MRSA (C) |

* * *

# System: microorganisms
# Assay Details: Morphology, biofilm and growth disrupting peptides (Table 5)
# Assay type: cell-based
# Parameters: key: A: Peptide aggregates; B: Less hyphal formation; Clumps; Diffuse clumps and small polyps; F: Diffuse growth; H: Thin; I: Growth inhibition; Microcolony formation; Rippled; Small polyps; Thick; W: Halo formation on top, microlonies on bottom
# Assay Setup: S. epidermidis
Experimental Readout: Organism, effect

A selection of reference data follows.
| Substance | Organism, effect |
| --- | --- |
| PF-619: peptide having multiple activities (chain 1 WSRVPGHSDTGWKVWHRW; chain 2 WSRVPGHSDTGWKVWHRW; Peptide with targeting and/or antimicrobial activity) | S. epidermidis (M) |
| PF-681: peptide having multiple activities (TALTTVGVSGARLITYCVGVEDI; Peptide with targeting and/or antimicrobial activity) | S. epidermidis (M) |
| PF-637: peptide having multiple activities (chain 1 SRIKQDARSVRKYDRIGIFFYSFKSA; chain 2 SRIKQDARSVRKYDRIGIFFYSFKSA; Peptide with targeting and/or antimicrobial activity) | S. epidermidis (M) |
| PF-584: peptide having multiple activities (chain 1 SYIKNLSNQKFLIAF; chain 2 SYIKNLSNQKFLIAF; Peptide with targeting and/or antimicrobial activity) | S. epidermidis (C) |

Here is another substance to look at.
Q: Which Organism, effect value belongs to PF-452: peptide having multiple activities (MNNWIKVAQISVTVINEVIDIMKEKQNGGK; Peptide with targeting and/or antimicrobial activity) ?
A: S. epidermidis (C)

* * *

# Tested on: microorganisms
# Assay Details: Morphology, biofilm and growth disrupting peptides (Table 5)
# Assay type: cell-based
# Design: key: A: Peptide aggregates; B: Less hyphal formation; Clumps; Diffuse clumps and small polyps; F: Diffuse growth; H: Thin; I: Growth inhibition; Microcolony formation; Rippled; Small polyps; Thick; W: Halo formation on top, microlonies on bottom
# Assay Setup: S. pneumoniae
Ends that are not written are not given here.
Experimental Readout: Organism, effect

Examples with answers:
| Substance | Tested On | Organism, effect |
| --- | --- | --- |
| PF-534 (KYFHLFYHNIIHYSKQHLSLKVDFKN; Peptide with targeting and/or antimicrobial activity) | microorganisms | S. pneumoniae (R) |
| FELVDWLETNLGKILKSKSA-NH2 [PF-522] | microorganisms | S. pneumoniae (H) |
| PF-624 (VFLLDSYCFVKINL; Peptide with targeting and/or antimicrobial activity) | microorganisms | S. pneumoniae (D) |
| PF-655: peptide having multiple activities (chain 1 DAPCFDDQFGDLKCQMC; chain 2 DAPCFDDQFGDLKCQMC; Peptide with targeting and/or antimicrobial activity) | microorganisms | S. pneumoniae (H) |
| SFMPEIQKNTIPTQMK [PF-512] | microorganisms | S. pneumoniae (H) |
| LHVIRPRPELSELKFPITKILKVNKQGLKK [PF-752] | microorganisms | S. pneumoniae (C) |
| PF-586: peptide having multiple activities (chain 1 FFNQANYFFKEF; chain 2 FFNQANYFFKEF; Peptide with targeting and/or antimicrobial activity) | microorganisms | S. pneumoniae (D) |
| PF-532 (KFIYKYKLSFIIYKILIQTLTMELNK; Peptide with targeting and/or antimicrobial activity) | microorganisms | S. pneumoniae (C) |

Q: Which Organism, effect reading was recorded for the substance PF-764: peptide having multiple activities (GYFEPGKRD; Peptide with targeting and/or antimicrobial activity) ?
A: S. pneumoniae (H)

Q: Given KTPNDKIHKTIIIKHIIL [PF-533] , state its recorded Organism, effect.
A: S. pneumoniae (C)

Q: Find the recorded Organism, effect belonging to PF-746: peptide having multiple activities (FLGNSQYFTRK; Peptide with targeting and/or antimicrobial activity) and report it.
A: S. pneumoniae (C)

Q: Report Organism, effect for PF-540: peptide having multiple activities (KSILILIKVIFIGQTTIIL; Peptide with targeting and/or antimicrobial activity) please.
A: S. pneumoniae (R)

Q: Fill in the blank: the reported Organism, effect of PF-443: peptide having multiple activities (KLLYFFNYFENLQQVHLLVQL; Peptide with targeting and/or antimicrobial activity) is ____.
A: S. pneumoniae (C)
